molecular target: Nuclear receptor subfamily 4 group A member 2 (Homo sapiens); experiment: ATG_NURR1_TRANS: Attagene TRANS-FACTORIAL HepG2 Assay for human Nuclear Receptor Related Protein 1 (NURR1) (AID 2282985); details: HepG2 Attagene TRANS reporter, mRNA readout
Inconclusive results are not listed. Activity calls are given as the source filed them. Rule for the calls: active = hit-call score of the fitted dose curve at least 0.9, where 1 is the maximum; inconclusive = response in the unintended direction; inactive = score below 0.9.
Outcomes you can answer with include only these: 1 (yes) (active), 0 (no) (inactive)

Q: How did this test come out for COC(=O)C=C(C)OP(=O)(OC)OC ?
A: 0 (no)

Q: How did this test come out for CS/C(C)=N/OC(=O)N(C)SN(C)C(=O)O/N=C(\C)SC ?
A: 0 (no)

Q: How did this test come out for CCCC1COC(Cn2cncn2)(c2ccc(Cl)cc2Cl)O1 (configuration not stated) ?
A: 0 (no)

Q: How did this test come out for CC(C)(C)c1ccc(CSc2cnn(C(C)(C)C)c(=O)c2Cl)cc1 ?
A: 0 (no)

Q: How did this test come out for Oc1ccccc1-c1ccccc1 ?
A: 0 (no)

Q: How did this test come out for OC(c1ccc(Cl)cc1)(c1cncnc1)c1ccccc1Cl (configuration not stated) ?
A: 0 (no)

Q: How did this test come out for O=C(Nc1ccccc1)Nc1ccnc(Cl)c1 ?
A: 1 (yes)
